System: T47D
Assay: NCI tumour cell line growth inhibition, 48 h
Active and inactive are the calls of the source. Rule as the data show it: active = GI50 up to about 1.1 µM and inactive = higher.
Tick one outcome: 1 (active), 0 (inactive)

NC(=O)NO [HYDROXYUREA] ... 0
COc1cc(C2c3cc4c(cc3OC(N3CCCC3)C2C)OCO4)cc(OC)c1O (stereo unspecified) ... 0

In: Could you kindly confirm the outcome this assay logged for Cc1cc2c(c3oc(C4(C)OC4C4OC4C)cc(=O)c13)C(=O)c1c(O)c(C3CC(C)(N(C)C)C(O)C(C)O3)cc(C3CC(N(C)C)C(O)C(C)O3)c1C2=O (stereo unspecified) ?
Out: 1

In: # fetch the recorded call for O=C1NC2(CCCCC2)C(=O)N1CCN(CCCl)CCCl here
Out: 0

In: Record request — test call for C/C(=N/NC(=S)Nc1ccccc1C)c1ccccn1
Out: 1

====

Entries and their measured GI50 follow.
System: NCI-H522
Test: NCI tumour cell line growth inhibition, 48 h
Calls of active or inactive are those of the source. No stated cut-off is given here; in the data, active = GI50 up to about 1.1 µM and inactive = higher.

Examples from the recorded data:
C[C@]12CCc3nonc3C1CC[C@@H]1C2CC[C@]2(C)C(=O)CCC12 (stereo not given in full) ... 19.8 µM (inactive)
Cc1ccc(C)c(NC(=O)/C(=N\NC(N)=S)C(C#N)c2ccccc2)c1 (stereo not given) ... > 100 µM (inactive)
Cc1ccc(S(=O)OC2C3CC4CC(C3)CC2C4)cc1 (stereo not given) ... > 100 µM (inactive)
COc1ccc(Cc2cc(Cc3ccc(OC)cc3)cc(Cc3ccc(OC)cc3)c2)cc1 ... > 100 µM (inactive)

In: What GI50 value was documented for this compound, O=C1CC(O)c2cscc21 (stereo not given) ?
Out: 41.3 µM (inactive)

In: GI50 for O=C1/C(=C/c2cc3c(=O)c4ccccc4sc3s2)NC(=S)N1c1ccccc1 ?
Out: > 100 µM (inactive)

In: So what's the measured GI50 for this one? CCOP(=O)(OCC)C(c1ccc(F)cc1)N(C(=O)NC(F)(F)F)c1ccc(F)cc1 (stereo not given)
Out: > 100 µM (inactive)

In: What GI50 value was documented for this compound, COc1ccc2c(C)cc(N/N=C/c3ccc(OC)c4ccccc34)nc2c1 ?
Out: 12 µM (inactive)

In: # query: GI50 of entry C[C@]12CC[C@H]3[C@@H](CCC4=C/C(=N/OCCN5CCCCC5)CC[C@@]43C)[C@@H]1CC[C@@H]2O
Out: 12.2 µM (inactive)

In: Which GI50 reading was recorded for the compound C=CCN1C(=O)NC(=O)/C(=C/c2c3ccccc3cc3ccccc23)C1=O ?
Out: 20.2 µM (inactive)

====

Test system: BT-549
Test: NCI tumour cell line growth inhibition, 48 h
The source made the active and inactive calls. Rule as the data show it: active = GI50 up to about 1.1 µM and inactive = higher.
Hi there, use one of these labels in your reply, thanks! TRUE = active, FALSE = inactive

C=CCn1c(-c2ccccc2)cs/c1=N\C(P(=O)(O)O)P(=O)(O)O ... FALSE
C=C1CC[C@@H]2[C@](C)(COC(=O)CCC(=O)O)CCC[C@@]2(C)[C@@H]1CCC1=CC(=O)OC1 ... FALSE
Cc1cc2nn(C3CCCCO3)nc2cc1C (centres undefined) ... FALSE

In: Hi, sorry to bother you, what did the test record for Cc1cccc2nc(-c3ccccc3)cc(=O)n12 ?
Out: FALSE

In: Dear all, I need the recorded test outcome for CC1OC(OC2C[C@](O)(C(=O)CF)Cc3c(O)c4c(c(O)c32)C(=O)c2ccccc2C4=O)CC(N)C1O (some centres undefined) , thank you.
Out: TRUE

In: In this assay, the call recorded for COc1ccc2[nH]c3c(C)c4c(c(C)c3c2c1)CN(C)C=C4 was what?
Out: FALSE

In: Test call, this compound: CCOC1c2cc(OC)c(OC)cc2-c2ccc3ccccc3c2N1C (centres undefined)
Out: FALSE

In: Dear all, I need the recorded test outcome for COc1cc(/C=C/C(=O)OCC23CC[C@@]4(C(=O)O)CCC(C)[C@H](C)C4C2=CCC2[C@@]4(C)CC[C@H](O)C(C)(C)C4CC[C@]23C)ccc1O (some centres undefined) , thank you.
Out: FALSE

In: Look up the recorded call for C/C(Cc1ccc2c(c1)OCO2)=N\N=c1\sc2ccccc2n1C in this test.
Out: FALSE

====

System: SNB-19
Experiment: NCI tumour cell line growth inhibition, 48 h
Activity calls are given as the source filed them. Rule as the data show it: active = GI50 up to about 1.1 µM and inactive = higher.
Recorded GI50, one value per entry.

Recorded GI50, per entry:
COC(=O)c1ccc(/C=C/c2cc(O)ccc2O)cc1 ... 33.3 µM (inactive)
CN(C)/C=N/S(=O)(=O)c1nn2c(C=O)c(-c3ccc([N+](=O)[O-])cc3)nc2s1 ... 28.6 µM (inactive)
NC1=NC(=O)C(CC(=O)Nc2ccc(Cl)cc2Cl)S1 (centres undefined) ... > 100 µM (inactive)

Switching to the query record.
In: Value lookup for GI50; key = COc1cc(C2c3cc4c(cc3OC(N3CCCC3)C2C)OCO4)cc(OC)c1O (centres undefined)
Out: 13.2 µM (inactive)

====

Tested on: PC-3
Experiment: NCI tumour cell line growth inhibition, 48 h
Calls of active or inactive are those of the source. Cut-off read from the data, not from the text of the source: active = GI50 up to about 1.1 µM and inactive = higher.
This section presents compounds with their documented GI50 values.

Clc1ccc2ns[s+]c2c1 ... 0.847 µM (active)
C[C@@]12C(=O)OC(=O)[C@]1(C)[C@H]1CC[C@@H]2O1 [CANTHARIDIN] ... 0.279 µM (active)
CC1=C(C(=O)N[C@@H](CC(C)C)C(=O)O)N2C(=O)[C@@H](NC(=O)[C@@H](N)Cc3ccccc3)[C@H]2SC1 ... > 100 µM (inactive)

// switching to the query compound
In: Given the entry CN1C(=O)C(=CNc2ccccc2Cl)C(=O)N(C)C1=O , report its measured GI50.
Out: 20.2 µM (inactive)

====

# GI50 per entry
System: CAKI-1
Test: NCI tumour cell line growth inhibition, 48 h
Active and inactive are the calls of the source. No stated cut-off is given here; in the data, active = GI50 up to about 1.1 µM and inactive = higher.

// known answers, use as guide
FC(F)(F)c1ccc2c(c1)nc(Cc1ccc(Cl)cc1)n2CC1CCCN2CCCCC12 (stereo not drawn) ... 14.8 µM (inactive)
c1ccc(-c2cc(-c3cc(-c4ccccn4)[nH]n3)n[nH]2)nc1 ... > 100 µM (inactive)

Here is the next item to consider.
In: Could you tell me which GI50 is on file for CCN(CCCl)c1cc(CN(C)C)cc(NC(=O)c2ccc(C(=O)Nc3cccc(CN(C)C)c3)cc2)c1 ?
Out: 32.6 µM (inactive)

====

GI50 listing for selected compounds.
System: OVCAR-5
Assay: NCI tumour cell line growth inhibition, 48 h
Calls of active or inactive are those of the source. No stated cut-off is given here; in the data, active = GI50 up to about 1.1 µM and inactive = higher.

Consider the following illustrative entries.
CC1(C)Cc2nc3c(cc2C(=O)C1/C=N/C(C#N)=C(\N)C#N)C(=O)C(/C=N/C(C#N)=C(\N)C#N)C(C)(C)C3 (centres undefined) ... 2.34 µM (inactive)
NC(CCCNc1ccc(O)cc1)C(=O)O (centres undefined) ... > 100 µM (inactive)
CC1CCC2(OC1)OC1CC3C4CCC5CC(O)CCC5(C)C4CC(=O)OC3(C)C1C2C (centres undefined) ... > 100 µM (inactive)

In: Consider the compound shown here: COc1ccc(C(c2ccccc2)(c2ccc(OC)cc2)N2C(=O)NC3C(CCCCC(=O)NCCCCCCOP(OCCC#N)N(C(C)C)C(C)C)SCC32)cc1 (centres undefined) What is its recorded GI50?
Out: > 10 µM (inactive)

====

In this section we review reported GI50 values for a set of molecules.
Test system: IGROV-1
Experiment: NCI tumour cell line growth inhibition, 48 h
Calls of active or inactive are those of the source. Rule as the data show it: active = GI50 up to about 1.1 µM and inactive = higher.

Before answering, review these 6 worked examples.
O=[N+]([O-])c1ccc2c(c1)=[N+]([O-])C1(CCCCC1)[N+]=2[O-] ... 20.4 µM (inactive)
CC1=C2N3C[C@@H](n4c(=O)n(C)c(=O)n43)C23CCC1n1c(=O)n(C)c(=O)n13 ... > 100 µM (inactive)
CC1OC(OC2C(OC(=O)[C@]34CCC(C)(C)C[C@H]3C3=CC[C@@H]5[C@@]6(C)CC[C@H](OC7OC(CO)C(O)C(O)C7OC7OC(CO)C(O)C(O)C7O)C(C)(C)[C@@H]6CC[C@@]5(C)[C@]3(C)CC4)OCC(O)C2O)C(O)C(OC2OCC(O)C(O)C2O)C1OC1OCC(O)C(OC2OCC(O)C(O)C2O)C1O (some centres not stated) ... 19.1 µM (inactive)
COc1cc(C(c2cc(OC)c(OC)c(OC)c2)N2C(=O)CCC2C(=O)O)cc(OC)c1OC (configuration not stated) ... > 100 µM (inactive)
CCCCCCCCCc1cc(O)c(O)cc1CCCCCCCCC ... > 10 µM (inactive)
Cc1cc(SCC(=O)c2ccccc2)nc2ccccc12 ... > 100 µM (inactive)

In: Can you look up the measured GI50 of COC1CC(O[C@H]2CC[C@@]3(C)[C@@H](CC[C@]4(O)[C@@H]3CC[C@]3(C)[C@@H](C(C)=O)[C@H](OC(=O)CC(C)C)[C@@H](OC(=O)c5ccccc5)[C@@]34O)C2)OC(C)C1OC1CC(OC)C(OC2OC(C)C(O)C(OC)C2O)C(C)O1 (some centres not stated) for me?
Out: 11.6 µM (inactive)

In: Name the recorded GI50 for CN/N=C(\C(=O)Nc1ccc([N+](=O)[O-])cc1[N+](=O)[O-])C1NC(=O)NC1=O (configuration not stated) .
Out: > 100 µM (inactive)

In: Entry under review: NC1=NC(=O)C(CC(=O)Nc2ccc(Cl)cc2Cl)S1 (configuration not stated) . Reported GI50?
Out: > 100 µM (inactive)

In: Looking for the measured GI50 of O=C1OC(CC(=O)c2ccc(F)cc2)C(Cl)=C1Cl (configuration not stated) , can you help?
Out: 27.2 µM (inactive)

In: Dear colleague, I am looking for the recorded GI50 of the following molecule: C[Si](C)(C)C1=C2C(=O)c3ccccc3C(=O)C2=C([Si](C)(C)C)[C@@H]2CCCC[C@H]12
Out: > 100 µM (inactive)

In: Give its GI50 value. Item: Cc1cc2ncn(C3CCCO3)c2cc1C (configuration not stated)
Out: > 100 µM (inactive)

In: Give its GI50 value. Item: CC1=CC(C)(C)NN1C1=NS(=O)(=O)c2ccccc2N1C
Out: > 100 µM (inactive)

In: Would you kindly share the measured GI50 for c1ccc2c(c1)nc1n2CNCC1 ?
Out: 94 µM (inactive)

In: Requested read-out: GI50. Entry: COc1cccc(NC(=O)C(C)(C)C)c1C=O
Out: 56.1 µM (inactive)
